src = patent US20230416239A1

TEST_TARGET: IL-13 (Homo sapiens)
ENDPOINT: pIC50
pIC50 here is simply -log10 of the concentration when that concentration is written in mol/L.

MOLECULE	pIC50
O=S(=O)(c1ccccc1)n1cc(CN(CCCCNC2CCCCC2)Cc2cn(S(=O)(=O)c3ccccc3)c3ccccc23)c2ccccc21	5.59

Prompt: For the molecule shown here, FC(F)(F)c1cccc(-n2cc(CN(Cc3ccncc3)CC3CCCN(C4CCCCC4)C3)c3ccccc32)c1 (stereo not drawn) , give the reported pIC50.
Completion: 5.51

----------
TEST_TARGET: IL-13 (Homo sapiens, UniProt P35225)
Sequence (P35225 25-146, species assumed): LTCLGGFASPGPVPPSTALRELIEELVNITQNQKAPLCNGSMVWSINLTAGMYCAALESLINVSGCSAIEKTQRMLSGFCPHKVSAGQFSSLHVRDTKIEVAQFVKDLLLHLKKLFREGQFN
PROTOCOL_SUMMARY: Immunoassay binding test, IL-13
TEST_CONTEXT: 100 μM
Property: BINDING IL13 % Neutra at 100 μM; scope: individual compounds
Show the value, then the unit it is measured in.

COMPOUND	BINDING IL13 % Neutra at 100 μM
CN(CCN(Cc1ccncc1)Cc1cn(-c2cccc(C(F)(F)F)c2)c2ccccc12)C1CCCCC1	81%
O=S(=O)(c1ccccc1)n1cc(CN(CCCCCNC2CCCCC2)Cc2ccncc2)c2ccccc21	95.4%

Prompt: For the compound shown here, O=S(=O)(c1ccccc1)n1cc(CN(Cc2cccc(F)n2)CC2CCCN(C3CCCCC3)C2)c2ccccc21 (centres unmarked) , give the reported BINDING IL13 % Neutra at 100 μM.
Completion: 87.6%

Prompt: For the compound shown here, O=S(=O)(c1ccccc1)n1cc(CN(Cc2ccccn2)CC2CCCN(C3CCCCC3)C2)c2ccccc21 (centres unmarked) , give the reported BINDING IL13 % Neutra at 100 μM.
Completion: 94.6%

Prompt: For the compound shown here, "O=S(=O)(c1ccccc1)n1cc(CN(CCCCCNC2CCCCC2)Cc2ccnc(F)c2)c2ccccc21" , give the reported BINDING IL13 % Neutra at 100 μM.
Completion: 93.1%

Prompt: For the compound shown here, "O=S(=O)(c1ccccc1)n1cc(CN(CCNC2CCCCC2)Cc2cccnc2)c2ccccc21" , give the reported BINDING IL13 % Neutra at 100 μM.
Completion: 61.2%

Prompt: For the compound shown here, "NCCN(Cc1cccnc1)Cc1cn(S(=O)(=O)c2ccccc2)c2ccccc12" , give the reported BINDING IL13 % Neutra at 100 μM.
Completion: 59.3%

----------
Property: BINDING IL4 % Neutra at 100 μM; scope: individual compounds
TEST_TARGET: IL-4 (Homo sapiens, UniProt P05112)
Sequence (P05112 25-153): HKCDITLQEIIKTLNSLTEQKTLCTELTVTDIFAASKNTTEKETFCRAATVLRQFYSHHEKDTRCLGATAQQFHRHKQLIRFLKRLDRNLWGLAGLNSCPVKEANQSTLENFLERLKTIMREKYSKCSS
PROTOCOL_SUMMARY: Immunoassay binding test, IL-4
TEST_CONTEXT: 100 μM
Quick reminder: number only, in %, skip the unit.

Some compounds with recorded BINDING IL4 % Neutra at 100 μM:
COMPOUND	BINDING IL4 % Neutra at 100 μM / %
CN(C)CCCCCN(Cc1cccc(F)n1)Cc1cn(S(=O)(=O)c2ccccc2)c2ccccc12	94.0
NCCCCN(Cc1cccnc1F)Cc1cn(S(=O)(=O)c2ccccc2)c2ccccc12	85.9
CN(CCCCN(Cc1cccnc1F)Cc1cn(S(=O)(=O)c2ccccc2)c2ncccc12)C1CCCCC1	95.8
FC(F)(F)c1cccc(-n2cc(CN(Cc3cccnc3)CC3CCCN(C4CCCCC4)C3)c3ccccc32)c1 (stereo not drawn)	98.3
FC(F)(F)c1cccc(-n2cc(CN(CCCNC3CCCCC3)Cc3cccnc3)c3ccccc32)c1	96.4

Prompt: For the compound shown here, "CN(CCCCN(Cc1cccnc1F)Cc1cn(S(=O)(=O)c2ccccc2)c2ccccc12)C1CCCCCCC1" , give the reported BINDING IL4 % Neutra at 100 μM.
Completion: 92.8

Prompt: For the compound shown here, FC(F)(F)c1cccc(-n2cc(CN(Cc3ccccn3)CC3CCCN(C4CCCCC4)C3)c3ccccc32)c1 (stereo not drawn) , give the reported BINDING IL4 % Neutra at 100 μM.
Completion: 97.8

Prompt: For the compound shown here, "CN(CCCN(Cc1cccnc1)Cc1cn(S(=O)(=O)c2ccccc2)c2ccccc12)C1CCCCC1" , give the reported BINDING IL4 % Neutra at 100 μM.
Completion: 94.4

Prompt: For the compound shown here, "CN(CCOCCN(Cc1cccnc1F)Cc1cn(S(=O)(=O)c2ccccc2)c2ccccc12)C1CCCCC1" , give the reported BINDING IL4 % Neutra at 100 μM.
Completion: 86.5
